assayTarget: human α1H T-type channels (Homo sapiens, UniProt O95180)
Construct: expressed in transfected cells; host or cells: HEK 293
Sequence (O95180 whole entry): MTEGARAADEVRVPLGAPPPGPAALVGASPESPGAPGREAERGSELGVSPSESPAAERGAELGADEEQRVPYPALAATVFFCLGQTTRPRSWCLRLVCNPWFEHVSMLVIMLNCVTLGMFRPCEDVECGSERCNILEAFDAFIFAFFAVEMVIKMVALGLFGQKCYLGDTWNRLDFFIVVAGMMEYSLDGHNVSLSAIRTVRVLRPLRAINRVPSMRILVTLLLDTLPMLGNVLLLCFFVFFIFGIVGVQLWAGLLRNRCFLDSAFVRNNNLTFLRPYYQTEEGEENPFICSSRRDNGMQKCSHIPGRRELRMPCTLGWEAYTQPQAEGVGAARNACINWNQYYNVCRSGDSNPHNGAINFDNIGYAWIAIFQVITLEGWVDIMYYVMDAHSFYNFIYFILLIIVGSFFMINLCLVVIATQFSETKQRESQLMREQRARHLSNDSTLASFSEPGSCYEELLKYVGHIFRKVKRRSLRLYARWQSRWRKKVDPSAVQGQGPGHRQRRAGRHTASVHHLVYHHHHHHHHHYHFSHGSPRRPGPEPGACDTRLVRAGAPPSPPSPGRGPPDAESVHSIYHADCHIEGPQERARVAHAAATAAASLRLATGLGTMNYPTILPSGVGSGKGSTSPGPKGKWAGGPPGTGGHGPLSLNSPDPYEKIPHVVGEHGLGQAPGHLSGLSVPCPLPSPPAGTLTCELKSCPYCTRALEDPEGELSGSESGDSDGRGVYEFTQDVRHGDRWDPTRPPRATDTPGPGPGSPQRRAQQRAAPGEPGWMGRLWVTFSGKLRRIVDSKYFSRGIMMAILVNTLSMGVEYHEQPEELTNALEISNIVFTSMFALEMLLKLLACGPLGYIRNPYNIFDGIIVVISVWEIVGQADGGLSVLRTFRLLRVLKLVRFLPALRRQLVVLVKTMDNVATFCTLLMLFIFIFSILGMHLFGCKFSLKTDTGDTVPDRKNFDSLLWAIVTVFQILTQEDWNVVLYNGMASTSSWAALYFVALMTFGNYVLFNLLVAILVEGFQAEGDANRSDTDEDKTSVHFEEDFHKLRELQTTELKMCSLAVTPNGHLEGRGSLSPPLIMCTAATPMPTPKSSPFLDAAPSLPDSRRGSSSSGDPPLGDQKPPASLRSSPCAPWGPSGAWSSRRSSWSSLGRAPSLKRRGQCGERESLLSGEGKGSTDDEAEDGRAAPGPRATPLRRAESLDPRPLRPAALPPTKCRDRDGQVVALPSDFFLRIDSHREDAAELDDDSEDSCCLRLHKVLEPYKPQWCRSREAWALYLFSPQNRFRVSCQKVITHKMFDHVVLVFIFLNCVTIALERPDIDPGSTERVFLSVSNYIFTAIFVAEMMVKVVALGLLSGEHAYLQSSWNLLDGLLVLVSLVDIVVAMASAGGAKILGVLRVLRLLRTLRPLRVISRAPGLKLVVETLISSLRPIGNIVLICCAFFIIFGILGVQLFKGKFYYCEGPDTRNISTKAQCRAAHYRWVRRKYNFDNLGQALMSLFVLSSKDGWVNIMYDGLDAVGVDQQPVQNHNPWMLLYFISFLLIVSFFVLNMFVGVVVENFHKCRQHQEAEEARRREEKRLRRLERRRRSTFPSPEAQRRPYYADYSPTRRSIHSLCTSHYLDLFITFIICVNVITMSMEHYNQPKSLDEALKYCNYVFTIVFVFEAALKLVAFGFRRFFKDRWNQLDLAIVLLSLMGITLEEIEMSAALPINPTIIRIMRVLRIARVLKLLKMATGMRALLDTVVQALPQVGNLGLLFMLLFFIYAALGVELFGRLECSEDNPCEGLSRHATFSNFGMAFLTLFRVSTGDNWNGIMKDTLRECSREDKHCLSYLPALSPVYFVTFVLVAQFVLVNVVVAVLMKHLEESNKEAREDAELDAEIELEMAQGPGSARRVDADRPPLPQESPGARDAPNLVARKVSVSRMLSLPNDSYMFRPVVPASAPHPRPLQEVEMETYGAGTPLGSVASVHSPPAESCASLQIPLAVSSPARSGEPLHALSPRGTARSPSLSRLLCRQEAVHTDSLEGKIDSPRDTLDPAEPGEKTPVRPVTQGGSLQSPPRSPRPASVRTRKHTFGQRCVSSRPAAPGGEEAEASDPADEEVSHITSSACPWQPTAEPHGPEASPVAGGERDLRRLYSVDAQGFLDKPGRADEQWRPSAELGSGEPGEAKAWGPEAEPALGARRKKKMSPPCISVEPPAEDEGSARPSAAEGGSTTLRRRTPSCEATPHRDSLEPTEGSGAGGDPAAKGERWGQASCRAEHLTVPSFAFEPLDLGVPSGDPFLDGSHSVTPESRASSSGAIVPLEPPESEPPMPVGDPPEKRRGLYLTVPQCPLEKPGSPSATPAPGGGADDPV
measurementNotes: T-type calcium channel block, whole cell patch clamp in HEK cells (α1H)
Type: cell-based
conditionContext: HEK cells, patch clamp, mainly non-inactivated protocol; values above 10 μM shown as 10 μM; read-out: T-type Calcium Channel Block α1H IC50
reportedMetric: IC50 (nM)

lineNotation | experimentalValue
COc1cc(C(=O)NCC2CCN(CCNC(=O)CCC(F)(F)F)CC2)cc(C(F)(F)F)c1 | 560
CC(C)S(=O)(=O)NCCN1CCC(CNC(=O)c2cc(C(F)(F)F)cc(C(F)(F)F)c2)CC1 | 400
O=C(NCC1CCN(CCNC(=O)C2(C(F)(F)F)CCC2)CC1)c1cc(F)cc(C(F)(F)F)c1 | 90
O=C(NCC1CCN(CC2(NS(=O)(=O)C3CC3)CC2)CC1)c1cc(C(F)(F)F)cc(C(F)(F)F)c1 | 490
CC(C)(C)N/C(CN1CCC(CNC(=O)c2cc(C(F)(F)F)cc(C(F)(F)F)c2)CC1)=N\C#N | 7200
O=C(NCC1CCN(CC(=O)N2CCC(F)CC2)CC1)c1cc(C(F)(F)F)cc(C(F)(F)F)c1 | 300
CN(C(=O)CN1CCC(CNC(=O)c2cccc(C(F)(F)F)c2)CC1)C(C)(C)C | 450
COc1cc(F)cc(C(=O)NCC2CCN(CC(=O)NCC(C)(C)F)CC2)c1 | 1310

* * *

assayTarget: human α1H T-type channels (Homo sapiens)
Construct: expressed in transfected cells; host or cells: HEK 293
measurementNotes: T-type calcium channel block, whole cell patch clamp in HEK cells (α1H)
Assay type: cell-based
conditionContext: HEK cells, patch clamp, mainly non-inactivated protocol; values above 10 μM shown as 10 μM; read-out: T-type Calcium Channel Block α1H IC50

compound | IC50
CC(C)COC(=O)NC(CN1CCC(CC(=O)NCc2cc(Cl)cc(Cl)c2)CC1)C(C)(C)C (stereo not shown) [Compound 225] | 770 nM
Cc1cc(C)cc(C(=O)NCC2CCN(CC(=O)N(C)C(C)(C)C)CC2)c1 [Compound 539] | 510 nM
O=C(NCC1CCN(CCNS(=O)(=O)C2CCCC2)CC1)c1cc(F)cc(C(F)(F)F)c1 [Compound 307] | 340 nM
O=C(NCC1CCN(CCNC(=O)C2(C(F)(F)F)CCCC2)CC1)c1cc(F)cc(C(F)(F)F)c1 [Compound 341] | 120 nM

* * *

assayTarget: human α1G T-type channels (Homo sapiens, UniProt O43497)
Construct: expressed in transfected cells; host or cells: HEK 293
Sequence (O43497 whole entry): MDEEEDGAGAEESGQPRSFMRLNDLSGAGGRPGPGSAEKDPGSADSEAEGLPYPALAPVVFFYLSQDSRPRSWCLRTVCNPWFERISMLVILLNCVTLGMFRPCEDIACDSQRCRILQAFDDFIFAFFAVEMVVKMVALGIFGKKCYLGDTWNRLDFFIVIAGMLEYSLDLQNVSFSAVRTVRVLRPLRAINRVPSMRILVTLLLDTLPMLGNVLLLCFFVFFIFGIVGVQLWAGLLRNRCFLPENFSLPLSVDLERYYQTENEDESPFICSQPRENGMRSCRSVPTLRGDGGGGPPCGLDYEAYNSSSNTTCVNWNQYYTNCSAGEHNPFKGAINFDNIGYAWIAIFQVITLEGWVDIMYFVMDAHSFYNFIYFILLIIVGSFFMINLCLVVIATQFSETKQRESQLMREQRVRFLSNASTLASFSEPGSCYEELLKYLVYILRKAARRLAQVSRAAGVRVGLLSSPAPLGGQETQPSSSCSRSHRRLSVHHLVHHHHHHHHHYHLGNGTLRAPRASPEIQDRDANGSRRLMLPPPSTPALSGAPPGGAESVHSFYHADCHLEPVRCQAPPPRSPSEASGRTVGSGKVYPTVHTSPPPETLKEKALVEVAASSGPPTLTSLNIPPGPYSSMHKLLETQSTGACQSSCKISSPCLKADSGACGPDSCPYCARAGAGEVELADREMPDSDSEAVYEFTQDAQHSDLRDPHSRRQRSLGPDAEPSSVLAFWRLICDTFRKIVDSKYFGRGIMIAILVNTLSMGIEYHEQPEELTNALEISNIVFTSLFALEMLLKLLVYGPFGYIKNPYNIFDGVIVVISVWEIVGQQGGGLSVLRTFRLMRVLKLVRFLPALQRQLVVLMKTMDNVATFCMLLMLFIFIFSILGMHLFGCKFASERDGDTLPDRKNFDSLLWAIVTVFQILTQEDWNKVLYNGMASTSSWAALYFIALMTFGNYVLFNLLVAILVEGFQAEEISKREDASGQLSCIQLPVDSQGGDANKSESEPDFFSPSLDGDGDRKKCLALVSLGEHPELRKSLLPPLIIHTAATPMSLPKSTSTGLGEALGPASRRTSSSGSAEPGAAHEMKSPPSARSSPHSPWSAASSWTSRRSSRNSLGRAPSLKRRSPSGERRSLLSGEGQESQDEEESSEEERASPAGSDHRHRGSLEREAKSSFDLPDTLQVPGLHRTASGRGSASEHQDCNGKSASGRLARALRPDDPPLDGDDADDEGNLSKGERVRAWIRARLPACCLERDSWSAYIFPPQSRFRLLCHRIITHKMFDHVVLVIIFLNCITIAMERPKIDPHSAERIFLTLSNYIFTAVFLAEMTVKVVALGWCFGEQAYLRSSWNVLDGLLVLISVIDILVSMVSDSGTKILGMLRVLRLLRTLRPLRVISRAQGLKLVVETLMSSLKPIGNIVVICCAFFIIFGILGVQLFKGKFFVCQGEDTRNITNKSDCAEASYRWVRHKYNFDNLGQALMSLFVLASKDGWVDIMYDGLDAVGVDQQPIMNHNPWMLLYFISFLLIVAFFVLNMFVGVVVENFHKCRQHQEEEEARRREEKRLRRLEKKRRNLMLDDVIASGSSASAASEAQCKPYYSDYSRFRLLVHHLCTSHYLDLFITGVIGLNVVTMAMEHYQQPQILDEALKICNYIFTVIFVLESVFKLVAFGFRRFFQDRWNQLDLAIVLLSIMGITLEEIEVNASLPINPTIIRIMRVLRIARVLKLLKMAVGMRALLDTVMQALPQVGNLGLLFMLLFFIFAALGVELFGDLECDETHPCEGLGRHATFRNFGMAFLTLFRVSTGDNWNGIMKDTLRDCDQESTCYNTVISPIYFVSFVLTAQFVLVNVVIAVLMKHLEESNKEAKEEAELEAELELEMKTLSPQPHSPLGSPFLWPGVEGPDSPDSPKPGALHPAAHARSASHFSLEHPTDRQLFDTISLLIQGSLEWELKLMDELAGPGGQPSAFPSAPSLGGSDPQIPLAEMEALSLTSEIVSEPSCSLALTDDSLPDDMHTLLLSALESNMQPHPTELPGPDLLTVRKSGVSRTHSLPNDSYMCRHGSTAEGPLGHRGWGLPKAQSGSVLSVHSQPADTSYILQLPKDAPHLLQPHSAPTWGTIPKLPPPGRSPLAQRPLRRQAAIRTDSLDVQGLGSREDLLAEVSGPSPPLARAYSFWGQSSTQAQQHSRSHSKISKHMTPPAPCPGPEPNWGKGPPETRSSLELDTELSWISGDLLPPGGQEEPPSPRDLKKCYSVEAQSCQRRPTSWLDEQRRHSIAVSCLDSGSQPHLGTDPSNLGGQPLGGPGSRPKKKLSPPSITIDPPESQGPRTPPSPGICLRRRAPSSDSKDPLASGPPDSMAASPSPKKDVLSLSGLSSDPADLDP
measurementNotes: T-type calcium channel block, whole cell patch clamp in HEK cells (α1G)
Assay type: cell-based
conditionContext: HEK cells, patch clamp, mainly non-inactivated protocol; values above 10 μM shown as 10 μM, below 0.30 μM shown as 0.30 μM; read-out: T-type Calcium Channel Block α1G IC50
reportedMetric: log10 of IC50 (log10 of the value in nM)

compound | reportedMetric | experimentalValue
CCOC1CCN(C(=O)CN2CCC(CNC(=O)c3cc(C(F)(F)F)cc(C(F)(F)F)c3)CC2)CC1 | log10 of IC50 | 3.87
CC(C)(C)OC(=O)NCCN1CCC(CNC(=O)c2cc(C(F)(F)F)cc(C(F)(F)F)c2)CC1 | log10 of IC50 | 2.61
CC1(C(=O)NCCN2CCC(CNC(=O)c3cc(C(F)(F)F)cc(C(F)(F)F)c3)CC2)CC1 | log10 of IC50 | 2.43
O=C(NCC1CCN(C(=O)CN2CCCC(C(F)(F)F)C2)CC1)c1cc(C(F)(F)F)cc(C(F)(F)F)c1 (stereo not shown) | log10 of IC50 | 2.76
CC(C)(O)C(=O)N1CCC(CC(=O)Nc2cc(C(F)(F)F)cc(C(F)(F)F)c2)CC1 | log10 of IC50 | 3.83
O=C(NCC1CCN(C(=O)CNCCCN2CCOCC2)CC1)c1cc(C(F)(F)F)cc(C(F)(F)F)c1 | log10 of IC50 | 3.86

* * *

assayTarget: human α1G T-type channels (Homo sapiens, UniProt O43497)
Construct: expressed in transfected cells; host or cells: HEK 293
measurementNotes: T-type calcium channel block, whole cell patch clamp in HEK cells (α1G)
Type: cell-based
conditionContext: HEK cells, patch clamp, mainly non-inactivated protocol; values above 10 μM shown as 10 μM, below 0.30 μM shown as 0.30 μM; read-out: T-type Calcium Channel Block α1G IC50
pIC50: −log10 of the molar value.
The following compounds are listed with their measured pIC50 values.
reportedMetric: pIC50

compound | assayTarget | experimentalValue
CC(C)NC(=O)CN1CCC(CNC(=O)c2cccc(OC(F)(F)F)c2)CC1 [Compound 444] | human α1G T-type channels (Homo sapiens, UniProt O43497) | 5.13
C[C@H]1CC[C@H](NCC(=O)N2CCC(CNC(=O)c3cc(C(F)(F)F)cc(C(F)(F)F)c3)CC2)CC1 [Compound 264] | human α1G T-type channels (Homo sapiens, UniProt O43497) | > 6.52
CCCNC(=O)CN1CCC(CNC(=O)c2cccc(Br)c2)CC1 [Compound 450] | human α1G T-type channels (Homo sapiens, UniProt O43497) | 5.05
CC(C)(C)NC(=O)CN1CCC(CNC(=O)c2cc(F)cc(Cl)c2)CC1 [Compound 367] | human α1G T-type channels (Homo sapiens, UniProt O43497) | > 6.52
CC1(NC(=O)CN2CCC(CNC(=O)c3cc(F)cc(Cl)c3)CC2)CCC1 [Compound 482] | human α1G T-type channels (Homo sapiens, UniProt O43497) | > 6.52
NC1(C(=O)N2CCC(CNC(=O)c3cc(C(F)(F)F)cc(C(F)(F)F)c3)CC2)CCCCC1 [Compound 86] | human α1G T-type channels (Homo sapiens, UniProt O43497) | < 5.00
CC(C)(F)C(=O)NCCN1CCC(CNC(=O)c2cc(F)cc(C(F)(F)F)c2)CC1 [Compound 336] | human α1G T-type channels (Homo sapiens, UniProt O43497) | 5.76
COCC(C)(C)NC(=O)CN1CCC(CNC(=O)c2cc(F)cc(C(F)(F)F)c2)CC1 [Compound 564] | human α1G T-type channels (Homo sapiens, UniProt O43497) | > 6.52
O=C(NCC1CCN(CC(=O)N2CCC[C@@H]2C(F)(F)F)CC1)c1cccc(F)c1 [Compound 508] | human α1G T-type channels (Homo sapiens, UniProt O43497) | < 5.00
CC(C)(C(=O)NCCN1CCC(CNC(=O)c2cc(C(F)(F)F)cc(C(F)(F)F)c2)CC1)C(F)(F)F [Compound 338] | human α1G T-type channels (Homo sapiens, UniProt O43497) | > 6.52
COCC(C)(C)NC(=O)CN1CCC(CNC(=O)c2cc(F)cc(OC)c2)CC1 [Compound 567] | human α1G T-type channels (Homo sapiens, UniProt O43497) | > 6.52
COc1cc(F)cc(C(=O)NCC2CCN(CCNC(=O)C3(C(F)(F)F)CC3)CC2)c1 [Compound 499] | human α1G T-type channels (Homo sapiens, UniProt O43497) | > 6.52
Cc1cc(C)cc(C(=O)NCC2CCN(CC(=O)NC3(C)CCC3)CC2)c1 [Compound 475] | human α1G T-type channels (Homo sapiens, UniProt O43497) | > 6.52
CC(C)(C)OC(=O)NC(CN1CCC(CC(=O)NCc2cc(Cl)cc(Cl)c2)CC1)C(C)(C)C (centres unmarked) [Compound 198] | human α1G T-type channels (Homo sapiens, UniProt O43497) | 6.40
O=C(/C=C/c1cc(F)cc(F)c1)NCC1CCN(CCNC(=O)CCC(F)(F)F)CC1 [Compound 314] | human α1G T-type channels (Homo sapiens, UniProt O43497) | < 5.00
CN(C(=O)CN1CCC(CNC(=O)c2cc(Cl)cc(Cl)c2)CC1)C(C)(C)C [Compound 552] | human α1G T-type channels (Homo sapiens, UniProt O43497) | > 6.52
COc1cc(F)cc(C(=O)NCC2CCN(CC(=O)N(C)C3(C)CCC3)CC2)c1 [Compound 584] | human α1G T-type channels (Homo sapiens, UniProt O43497) | > 6.52

* * *

assayTarget: human α1H T-type channels (Homo sapiens, UniProt O95180)
Construct: expressed in transfected cells; host or cells: HEK 293
measurementNotes: T-type calcium channel block, whole cell patch clamp in HEK cells (α1H)
Format: cell-based
conditionContext: HEK cells, patch clamp, mainly non-inactivated protocol; values above 10 μM shown as 10 μM; read-out: T-type Calcium Channel Block α1H IC50
Mark fulfilled for IC50 under 200 nM, not fulfilled if at or over.

compound | assayTarget | qualitativeLabel
CC(C)(C(=O)NCCN1CCC(CNC(=O)c2cccc(Cl)c2)CC1)C(F)(F)F [Compound 494] | human α1H T-type channels (Homo sapiens, UniProt O95180) | fulfilled
CC(C(=O)N1CCC[C@H]1C(F)(F)F)N1CCC(CNC(=O)c2cc(F)cc(Cl)c2)CC1 (some centres unmarked) [Compound 548] | human α1H T-type channels (Homo sapiens, UniProt O95180) | fulfilled
CN(CCN1CCC(CNC(=O)c2cc(F)cc(C(F)(F)F)c2)CC1)C(=O)C1(C(F)(F)F)CCCC1 [Compound 522] | human α1H T-type channels (Homo sapiens, UniProt O95180) | fulfilled
CC(C)(C)C(O)CN1CCC(CC(=O)Nc2cc(C(F)(F)F)cc(C(F)(F)F)c2)CC1 (centres unmarked) [Compound 153] | human α1H T-type channels (Homo sapiens, UniProt O95180) | fulfilled
CC(C)S(=O)(=O)NCCN1CCC(CNC(=O)c2cc(F)cc(Cl)c2)CC1 [Compound 385] | human α1H T-type channels (Homo sapiens, UniProt O95180) | not fulfilled
CC(C)(C)NC(=O)CN1CCC(CNC(=O)c2cccc(Cl)c2)CC1 [Compound 364] | human α1H T-type channels (Homo sapiens, UniProt O95180) | not fulfilled
CCOC(=O)NCCN1CCC(CNC(=O)c2cc(C(F)(F)F)cc(C(F)(F)F)c2)CC1 [Compound 36] | human α1H T-type channels (Homo sapiens, UniProt O95180) | not fulfilled
O=C(NCC1CCN(CCNS(=O)(=O)C(F)(F)F)CC1)c1cc(C(F)(F)F)cc(C(F)(F)F)c1 [Compound 21] | human α1H T-type channels (Homo sapiens, UniProt O95180) | not fulfilled
